system: α7 integrin (LacZ reporter in α7βgal+/− myoblasts); experiment: Myoblast α7+/LacZ integrin FDG assay (Burkin assay in myoblasts, 96-well); type: cell-based, mouse; conditions: 40 uM; α7+/LacZ myoblasts, 96-well
Checkbox rule: Burkin Assay in Myoblasts, signal relative to DMSO lower than 0.8 = satisfied; Burkin Assay in Myoblasts, signal relative to DMSO not lower than 0.8 = not satisfied.

Does `Cc1ccccc1NC(=O)c1ccc2c(O)c(S(=O)(=O)c3ccccc3)c(=O)[nH]c2c1` have Burkin Assay in Myoblasts, signal relative to DMSO strictly under 0.8?
not satisfied

# check: Burkin Assay in Myoblasts, signal relative to DMSO < 0.8 for `CCCNC(=S)N1CCC(NC(=O)c2ccc(OC)cc2)CC1`
not satisfied

Criterion: Burkin Assay in Myoblasts, signal relative to DMSO strictly below 0.8. Is it met by `CCCc1nnc(SCC(=O)NC2CCCC2)n1CCOC` ?
satisfied

In the record for `COC(=O)c1ccccc1NC(=O)CSc1nc(O)c(-c2ccccc2)c(=O)[nH]1` , is Burkin Assay in Myoblasts, signal relative to DMSO less than 0.8?
not satisfied

Given `O=C(NCc1ccccc1)c1csc(-c2cccnc2)n1` , is recorded Burkin Assay in Myoblasts, signal relative to DMSO strictly lower than 0.8?
not satisfied

# TODO verify Burkin Assay in Myoblasts, signal relative to DMSO < 0.8 strictly for this compound: `CCOc1ccccc1Nc1cc2n(c(=O)n1)CCc1cc(OC)c(OC)cc1-2`
satisfied

Please state whether Burkin Assay in Myoblasts, signal relative to DMSO is below 0.8 for `CC(=O)Nc1ccc(-n2c(C)nc(=O)c(-c3ccccc3)c2C)cc1`
satisfied

Input `CCOC(=O)c1cc(-c2cccs2)nc2c1c(C)nn2-c1ccccn1` ; condition: Burkin Assay in Myoblasts, signal relative to DMSO strictly below 0.8. Does it hold?
satisfied

Regarding CC(C(=O)Nc1ccc(C#N)cc1)N(C)CC(=O)Nc1cccc(F)c1 (stereo not drawn) , kindly confirm whether its Burkin Assay in Myoblasts, signal relative to DMSO is beneath 0.8.
not satisfied

Is it true that Burkin Assay in Myoblasts, signal relative to DMSO reported for `COc1cc(C=O)ccc1OCC(=O)Nc1ccc2c(c1)OCO2` is less than 0.8?
not satisfied

Would you kindly verify if Burkin Assay in Myoblasts, signal relative to DMSO of `O=C(O)CCCNC(=O)CCn1nnc2ccccc2c1=O` is strictly less than 0.8?
not satisfied

Please let me know if Cc1cccc(NC(=O)c2ccc(N3C(=O)C4CCCCC4C3=O)cc2)c1C (stereo not drawn) shows Burkin Assay in Myoblasts, signal relative to DMSO below 0.8.
not satisfied

Dear reviewer, please state whether CC(=O)C1=C(C)Nc2ncnn2C1c1ccc(C)cc1 (stereo not drawn) has Burkin Assay in Myoblasts, signal relative to DMSO strictly beneath 0.8.
satisfied

Report whether reported Burkin Assay in Myoblasts, signal relative to DMSO is lower than 0.8 (strictly) for `Cc1ccc2c(c1)/C(=C/c1ccco1)C(=O)N2`
not satisfied

Consider the compound `CCCCN1CC(=O)N2Cc3[nH]c4ccccc4c3C[C@H]2C1=O` . Is its Burkin Assay in Myoblasts, signal relative to DMSO strictly less than 0.8?
not satisfied

hey, is Burkin Assay in Myoblasts, signal relative to DMSO for CCC(=O)c1ccc(OCC(O)CN2CC(C)OC(C)C2)cc1.O=C(O)C(=O)O (stereo not drawn) lower than 0.8 or not?
not satisfied

Decide: Burkin Assay in Myoblasts, signal relative to DMSO of `O=c1c2cc(-c3ccccc3)sc2nc2n1N=C(c1ccccc1)CS2` strictly below 0.8?
not satisfied

# check: Burkin Assay in Myoblasts, signal relative to DMSO < 0.8 for `CC(=O)Nc1nonc1-c1nc2ccccc2n1CCC(C)C`
satisfied

Taken from patent US9980943B2.
